System: BT-549
PROTOCOL_SUMMARY: NCI tumour cell line growth inhibition, 48 h
The source made the active and inactive calls. No stated cut-off is given here; in the data, active = GI50 up to about 1.1 µM and inactive = higher.
Hi! Could you answer with just one of these? yes (1) for active, no (0) for inactive

Example results:
>>> df
                                   compound  assigned_label
0  COc1cc(S(=O)(=O)N/N=C/c2cc(Br)c(O)c(OC)c2)c(OC)cc1NC(C)=O          no (0)
1  CC(C)(CCC(C)(C)N1OC1c1ccccc1)N1OC1c1ccccc1 (stereo not drawn)          no (0)
2                  Nc1ncnc2oc(-c3cccs3)nc12          no (0)
3      C/C(=N/NC(=S)N(C)CCc1ccccn1)c1cnccn1         yes (1)
4  CCOC(=O)C1C(c2ccc(OC)cc2)c2c(nn(-c3ccccc3)c2O)CC1(O)OCC (stereo not drawn)          no (0)
5      O=C(/C=C/c1cc(O)c(O)cc1O)OCCc1ccccc1          no (0)
6  CN(C)S(=O)(=O)/N=C/c1cccc(/C=N/S(=O)(=O)N(C)C)c1          no (0)
7  O=[N+]([O-])c1cc2no[n+]([O-])c2cc1N1CCCCC1          no (0)
8  C=CCN1C[C@H](C)N([C@@H](c2ccc(C(=O)N3CCCCC3)cc2)c2cccc(OC)c2)C[C@H]1C          no (0)
9  COc1ccc(C2c3cc4c(cc3OC(Nc3ccccc3)C2C)OCO4)cc1 (stereo not drawn)          no (0)

Qu. Which outcome did this test record for the compound FC(F)(F)c1ccc2nc3n(c2c1)C(c1c(Cl)cccc1Cl)SC3 (stereo not drawn) ?
Ans. no (0)

Qu. Follow-up entry: `CCCCc1ccc(-n2sc3ncccc3c2=O)cc1`
Ans. no (0)

Qu. Follow-up entry: `N/C(=N\Nc1ccc(C(=O)O)cc1)c1cnccn1`
Ans. no (0)

* * *

System: COLO 205
PROTOCOL_SUMMARY: NCI tumour cell line growth inhibition, 48 h
Calls of active or inactive are those of the source. Rule as the data show it: active = GI50 up to about 1.1 µM and inactive = higher.
GI50 values for the molecules below.

For orientation, consider the following solved cases.
In [3]: df
Out[3]:
                                   molecule          assay_value
0  COC1=CC(=O)c2c(O)c3c(c(O)c2C1=O)C[C@](C)(O)C[C@@H]3O   1.77 µM (inactive)
1  O=C(O)C(Cc1c[nH]cn1)N1C(=O)c2ccccc2C1=O (stereo not given)  > 100 µM (inactive)

Qu. I have this molecule here, CCC1(C)NN=c2s/c(=C/c3ccc(OC)cc3)c(=O)n2N1 (stereo not given) , and I need its recorded GI50.
Ans. > 100 µM (inactive)

Qu. Follow-up entry: `CN(CCNC(=O)c1n[nH]c2c1ccc1ccccc12)CCNC(=O)c1n[nH]c2c1ccc1ccccc12`
Ans. 1.39 µM (inactive)

Qu. Follow-up entry: `COc1c(OC)c(OC)c2c(=O)cc(-c3ccc(OC(C)C)cc3)oc2c1OC`
Ans. 21.4 µM (inactive)

Qu. Follow-up entry: `CCOC(=O)/C=C(\C)c1ccc(C)cc1C`
Ans. > 100 µM (inactive)

Qu. Follow-up entry: `Cc1ccc(-c2cc(N)n(-c3nc4c([nH]3)c(=O)n(C)c(=O)n4C)n2)cc1`
Ans. 3.62 µM (inactive)

Qu. Follow-up entry: `O=C(COc1ccc(OCC(=O)N2C(=O)CC/C2=N\c2ccc(Cl)cc2)cc1)N1C(=O)CS/C1=N\c1ccc(Cl)cc1`
Ans. 47.9 µM (inactive)

Qu. Follow-up entry: `S=c1[nH]c(Cl)cc2nc(Cl)cn12`
Ans. 2.83 µM (inactive)

Qu. Follow-up entry: CCC12CCCC(=O)N1C(CO)C(c1ccccc1)O2 (stereo not given)
Ans. > 100 µM (inactive)

* * *

System: K562
PROTOCOL_SUMMARY: NCI tumour cell line growth inhibition, 48 h
The source made the active and inactive calls. Cut-off read from the data, not from the text of the source: active = GI50 up to about 1.1 µM and inactive = higher.
Hi! Could you answer with just one of these? active, inactive

>>> print(df.to_string())
                                   molecule  assigned_label
0  CC(=O)Nc1ccc2c3c(cc(O)c2c1)N(C(=O)CCCCCCC(=O)Nc1ccc2c4c(cc(O)c2c1)N(C(=O)OC(C)(C)C)CC4CCl)CC3CCl (centres undefined)          active
1  CCN1C(=O)C(=C/C=C/C=C2/N(C)c3ccccc3C2(C)C)C(=O)N(CC)C1=S        inactive

Qu. Which outcome did this test record for the molecule C[C@]12CCC3[C@@H](CCC45OC4C(=O)CC[C@]35C)C1Cc1cnn(-c3ccc(F)cc3)c1N2 (some centres undefined) ?
Ans. inactive

* * *

Test system: PC-3
PROTOCOL_SUMMARY: NCI tumour cell line growth inhibition, 48 h
Activity calls are given as the source filed them. Cut-off read from the data, not from the text of the source: active = GI50 up to about 1.1 µM and inactive = higher.
PROPERTY_NAME: GI50

For orientation, consider the following solved cases.
>>> df
                           smiles_repr  target_system          assay_value
0         Cc1ccc(-[n+]2cc([O-])on2)cc1           PC-3  > 100 µM (inactive)
1  N=NCC(=O)OC(COCc1ccccc1)COCc1ccccc1           PC-3     70 µM (inactive)

Kindly review the next compound as well.
Qu. I have this compound here, `Cc1nnc2n1N=C(c1ccccc1)/C(=C/c1ccc(-c3ccc(Cl)cc3)o1)S2` , and I need its recorded GI50.
Ans. 11.9 µM (inactive)

* * *

Test system: MDA-N
PROTOCOL_SUMMARY: NCI tumour cell line growth inhibition, 48 h
Active and inactive are the calls of the source. Cut-off read from the data, not from the text of the source: active = GI50 up to about 1.1 µM and inactive = higher.
Hi! Could you answer with just one of these? active, inactive

Example results:
COMPOUND	ASSIGNED_LABEL
O=C1CCC(C(=O)O)C2=C1CCCC2 (stereo not drawn)	inactive
CN1CCN(C2=NCCO2)CC1	inactive

Qu. Which outcome did this test record for the compound `N#C/C(=C/NC(=S)c1ccncc1)C(N)=O` ?
Ans. inactive

Qu. Follow-up entry: `COC1=CC(=O)c2c(O)c3c(c(O)c2C1=O)C[C@](C)(O)C[C@@H]3O`
Ans. inactive

Qu. Follow-up entry: `C=CCN1C[C@H](C)N([C@@H](c2ccc(C(=O)N3CCCCC3)cc2)c2cccc(OC)c2)C[C@H]1C`
Ans. inactive

* * *

System: KM12
PROTOCOL_SUMMARY: NCI tumour cell line growth inhibition, 48 h
Activity calls are given as the source filed them. Rule as the data show it: active = GI50 up to about 1.1 µM and inactive = higher.
Hi! Could you answer with just one of these? Yes = active, No = inactive

Example results:
>>> df
                                   compound  assigned_label
0  CN(C)c1ccc(/C=c2/c3ccccc3n3c2cc(C24CC5CC(CC(C5)C2)C4)[n+]3C)cc1             Yes
1  N#CC12C(=O)N3C(=NC(c4ccccc4)NC3c3ccccc3)C1(C#N)C(c1ccccc1)NC1=C2CCCC1 (stereo not given)              No
2  C=CC[C@]12C[C@@H](C(=O)OC)N(C(=O)OC)[C@H]1N(S(=O)(=O)c1ccccc1)c1ccccc12              No
3  c1ccc(-c2[nH]c(-c3ccccc3)c(-c3cnccn3)c2-c2cnccn2)cc1              No
4  O=C(O)C1C2CCC(C2)C1c1ccccc1 (stereo not given)              No

Qu. Which outcome did this test record for the compound `CN(C)S(=O)(=O)/N=C/c1cccc(/C=N/S(=O)(=O)N(C)C)c1` ?
Ans. No

Qu. Follow-up entry: `O=[N+]([O-])c1cc2no[n+]([O-])c2cc1N1CCCCC1`
Ans. No

Qu. Follow-up entry: `C/C=C(\C)CC/C=C/CO[Si](C)(C)C(C)(C)C`
Ans. No

Qu. Follow-up entry: `COc1c(OC)c(OC)c2c(=O)cc(-c3ccc(OC(C)C)cc3)oc2c1OC`
Ans. No

Qu. Follow-up entry: `c1ccc2c(c1)c1ccccc1n2Cn1c2ccccc2c2ccccc21`
Ans. No

* * *

Test system: NCI-H522
PROTOCOL_SUMMARY: NCI tumour cell line growth inhibition, 48 h
Structures can show the parent of a compound that is named as a salt. Calls of active or inactive are those of the source. Cut-off read from the data, not from the text of the source: active = GI50 up to about 1.1 µM and inactive = higher.
Hi! Could you answer with just one of these? 1 (active), 0 (inactive)

Example results:
In [3]: df
Out[3]:
                                   molecule  assigned_label
0  COc1cccc2c1C(=O)c1c(O)c3c(c(O)c1C2=O)C[C@@](O)(C(=O)CO)C[C@@H]3OC1CC(N2CCOCC2C#N)C(O)C(C)O1 (some centres undefined)               1
1  Clc1ccc(COc2ccccc2/C=N/c2c(-c3ccco3)nc3ccccn23)c(Cl)c1               0
2  CN(C)CCC=C1c2ccccc2C=Cc2ccccc21 [CYCLOBENZAPRINE HYDROCHLORIDE]               0

Qu. Which outcome did this test record for the molecule `CCOc1ccc2c(c1)[n+]([O-])c(-c1ccccc1)c(N)[n+]2[O-]` ?
Ans. 0
